Recorded Kd, one value per entry.
# tested system: T1, recombinant human CD40-his (Acro biosystems, Cat. No. CD0-H5228) (human, UniProt P25942 21-193)
# T1 construct: Bought protein; also called human CD40-his protein; not shown: His tag
# T1 sequence (P25942 21-193 limits assumed): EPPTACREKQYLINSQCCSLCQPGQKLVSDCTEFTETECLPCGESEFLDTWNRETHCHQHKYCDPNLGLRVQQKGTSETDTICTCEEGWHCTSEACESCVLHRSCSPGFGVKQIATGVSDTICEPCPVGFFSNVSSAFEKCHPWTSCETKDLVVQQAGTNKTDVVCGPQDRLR
# test description: BLI (Octet RED 96), antibody captured from cell supernatant on AHC sensor, human CD40-his as analyte, 1:1 fit
Give a bare numeral; the unit nM is implied.

For orientation, consider the following solved cases.
# binder, Kd, nM
records = [
    ("humanized antibody huC1H1-V2 (antibody, human IgG2, kappa, V domains shown, Human IgG2 / kappa) VH: EVQLVESGGGLVKPGGSLRLSCAASGFTFSNYGISWVRQAPGKGLEWVSSISSGGDNTYYPDNVKGRFTISRDNAKNSLYLQMNSLRAEDTAVYYCARAGEKAMDYWGQGTLVTVSS VL: EIVLTQSPATLSLSPGERATLSCRASQTINNNLHWYQQKPGQAPRLLIKYASQSISGIPARFSGSGSGTDFTLTISSLEPEDFAVYFCQQFSSWPLTFGGGTKVEIKR", 0.596),
    ("humanized antibody huC1H1-V3 (antibody, human IgG2, kappa, V domains shown, Human IgG2 / kappa; Tested as cell supernatant in the Octet assay) VH: EVQLVESGGGLVKPGGSLRLSCAASGFTFSNYGISWVRQAPGKGLEWVASISSGGDNTYYPDNVKGRFTISRDNAKNSLYLQMNSLRAEDTAVYYCARAGEKAMDYWGQGTLVTVSS VL: EIVLTQSPATLSLSPGERATLSCRASQTINNNLHWYQQKPGQAPRLLIYYASQSISGIPARFSGSGSGTDFTLTISSLEPEDFAVYYCQQFSSWPLTFGGGTKVEIKR", 5.41),
    ("humanized antibody huC1H1-V4 (antibody, human IgG2, kappa, V domains shown, Human IgG2 / kappa; Tested as cell supernatant in the Octet assay) VH: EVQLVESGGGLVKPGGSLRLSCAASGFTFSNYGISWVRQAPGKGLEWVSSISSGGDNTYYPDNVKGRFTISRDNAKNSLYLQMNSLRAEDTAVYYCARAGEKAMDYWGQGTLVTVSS VL: EIVLTQSPATLSLSPGERATLSCRASQTINNNLHWYQQKPGQAPRLLIYYASQSISGIPARFSGSGSGTDFTLTISSLEPEDFAVYYCQQFSSWPLTFGGGTKVEIKR", 8.66),
]

## Task Write down Kd measured for item humanized antibody huC1H1-V1 (antibody, human IgG2, kappa, V domains shown, Human IgG2 / kappa) VH: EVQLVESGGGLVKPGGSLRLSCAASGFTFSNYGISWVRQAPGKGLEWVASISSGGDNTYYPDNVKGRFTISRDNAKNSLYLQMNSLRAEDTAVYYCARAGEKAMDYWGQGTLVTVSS VL: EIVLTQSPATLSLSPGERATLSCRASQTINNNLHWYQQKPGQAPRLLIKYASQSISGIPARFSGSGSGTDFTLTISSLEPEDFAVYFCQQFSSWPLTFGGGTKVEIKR
## Result 0.904
